Biological target: T1, native mouse MET on living cells (mouse, UniProt P16056 25-1379)
T1 construct: whole, on cells; also called Mouse cells (MLP29); mouse epithelial cells expressing MET
Assay: flow cytometry, MLP29 cells
MEASURED_QUANTITY: EMAX

Record excerpt, results attached:
INSERT INTO results (binder, reported_value) VALUES
  ('71G12 chimeric llama-human IgG1 mAb (antibody, V domains shown, llama VH on human IgG1 CH1-CH2-CH3, llama VL on human kappa CL) VH: QVQLQESGGDLVQPGGSLRVSCVVSGFTFSRYYMSWVRQAPGKGLEWVSSIDSYGYSTYYTDSVKGRFTISRDNAKNTLYLQMNSLKPEDTALYYCARAKTTWSYDYWGQGTQVTVSS VL: EIVLTQSPSSVTASVGGKVTINCKSSQSVFIASNQKTYLNWYQQRPGQSPRLVISYASTRESGIPDRFSGSGSTTDFTLTISSVQPEDAAVYYCQQAYSHPTFGQGTKVELK', '121 % relative to control'),
  ('76G7 chimeric llama-human IgG1 mAb (antibody, V domains shown, llama VH on human IgG1 CH1-CH2-CH3, llama VL on human lambda CL) VH: QVQLVESGGNLVQPGGSLRLSCAASGFTFSNYYMSWVRQAPGKGLEWVSDIYSDGSTTWYSDSVKGRFTISRDNAKNTLSLQMNSLKSEDTAVYYCARVKIYPGGYDAWGQGTQVTVSS VL: QAGLTQPPSVSGSPGKTVTISCAGNSSDVGYGNYVSWYQQFPGMAPKLLIYLVNKRASGITDRFSGSKSGNTASLTISGLQSEDEADYYCASYTGSNNIVFGGGTHLTVL', '115 % relative to control'),
  ('71D4 chimeric llama-human IgG1 mAb (antibody, V domains shown, llama VH on human IgG1 CH1-CH2-CH3, llama VL on human lambda CL) VH: ELQLVESGGGLVQPGGSLRLSCAASGFTFSGYGMSWVRQAPGKGLEWVSDINSGGGSTSYADSVKGRFTISRDNAKNTLYLQMNSLKPEDTAVYYCAKDMRLYLARYNDYEAWDYWGQGTQVTVSS VL: SSALTQPSALSVTLGQTAKITCQGGSLGSSYAHWYQQKPGQAPVLVIYDDDSRPSGIPERFSGSSSGGTATLTISGAQAEDEGDYYCQSADSSGNAAVFGGGTHLTVL', '94.8 % relative to control');

Next binder, please.
Q: Given the entry 76H10 chimeric llama-human IgG1 mAb (antibody, V domains shown, llama VH on human IgG1 CH1-CH2-CH3, llama VL on human lambda CL) VH: QLQLVESGGGLVQPGGSLRVSCTASGFTFNTYYMTWVRQAPGKGLEWVSDINSGGGTYYADSVKGRFTISRDNAKNTLYLQMNSLKPEDTALYYCVRVRIWPVGYDYWGQGTQVTVSS VL: QAVVTQEPSLSVSPGGTVTLTCGLSSGSVTTSNYPGWFQQTPGQAPRTLIYNTNNRHSGVPSRFSGSISGNKAALTITGAQPEDEADYYCSLYTGSYTTVFGGGTHLTVL , report its measured EMAX.
A: 124 % relative to control
